The measured values listed here are drawn from the NIST ThermoML archive (doi:10.1021/je060139a).

# assayNotes: xn = mol fraction of the nth substance listed
# testParameters: 288.15 K, Wilhelmy plate method, x1 = 0.6
Rule: surface tension liquid-gas of 30 mN/m or more gives 1.0; anything lower gives 0.0.

COC(=O)c1ccccc1 [methyl benzoate] + CCO
1.0
CC(=O)OCc1ccccc1 [benzyl ethanoate] + CCO
1.0

Please find the next molecule below.
Evaluate CCOC(=O)CC(C)C [ethyl 3-methylbutanoate] + CCO : surface tension liquid-gas at minimum 30 mN/m?
0.0

* * *

# assayNotes: refractive index (Na D-line) (dimensionless); xn = mol fraction of the nth substance listed
# testParameters: 288.15 K; 100.5 kPa; Liquid; Standard Abbe refractometry; x1 = 0.85
property: refractive index
# answer = number (no unit)

CCOC(=O)c1ccccc1O [ethyl 2-hydroxybenzoate] + CCO
1.51498
CC(=O)OCc1ccccc1 [benzyl ethanoate] + CCO
1.49539
CCOC(=O)CC(C)=O [ethyl 3-oxobutanoate] + CCO
1.417
CCC(=O)OCc1ccccc1 [benzyl propanoate] + CCO
1.49183
COC(=O)c1ccccc1 [methyl benzoate] + CCO
1.50803

Read the next record carefully.
Which value of refractive index has been reported for CCOC(=O)CC(C)C [ethyl 3-methylbutanoate] + CCO in the records?
1.39646
